Sourced from PubChem BioAssay AID2060500

Each entry below carries its reported viability, T/C.
- Test system: 596521-263-R-J1-PDC complex spheroids, viability % of control
- Run description: Anticancer human tumor 596521-263-R-J1-PDC patient-derived soft tissue sarcoma cell line growth inhibition [GQUAD]
- Conditions: second compound 0.0316 µM; first compound 0.0316 µM; hits give low values
# number only, unit % dropped from output

Entry Cc1[nH]c2ccccc2c1CCNCc1ccc(/C=C/C(=O)NO)cc1 + Cc1[nH]c2ccc(F)cc2c1-c1nc2c3cccnc3c3ncccc3c2[nH]1 — recorded viability, T/C = 82

Entry Nc1ccn(C2OC(CO)C(O)C2(F)F)c(=O)n1 (stereo not given) + CN(C)c1ccc(Nc2c3ccc(NC(=O)CCN4CCCC4)cc3nc3cc(NC(=O)CCN4CCCC4)ccc23)cc1 — recorded viability, T/C = 48.3

Entry CC(=O)O[C@H]1C(=O)[C@@]2(C)[C@H]([C@H](OC(=O)c3ccccc3)[C@]3(O)C[C@H](OC(=O)[C@H](O)[C@@H](NC(=O)c4ccccc4)c4ccccc4)C(C)=C1C3(C)C)[C@]1(OC(C)=O)CO[C@@H]1C[C@@H]2O + Cc1[nH]c2ccc(F)cc2c1-c1nc2c3cccnc3c3ncccc3c2[nH]1 — recorded viability, T/C = 90.8

Entry CCc1c2c(nc3ccc(O)cc13)-c1cc3c(c(=O)n1C2)COC(=O)[C@]3(O)CC + Cc1[nH]c2ccc(F)cc2c1-c1nc2c3cccnc3c3ncccc3c2[nH]1 — recorded viability, T/C = 34.3

Entry O=C(c1cc(Cc2n[nH]c(=O)c3ccccc23)ccc1F)N1CCN(C(=O)C2CC2)CC1 + Cc1[nH]c2ccc(F)cc2c1-c1nc2c3cccnc3c3ncccc3c2[nH]1 — recorded viability, T/C = 97.8

* * *

- System: 596521-263-R-J1-PDC complex spheroids, viability % of control
- Run description: Anticancer human tumor 596521-263-R-J1-PDC cell line growth inhibition [GQUAD]; active means viability on the fitted dose curve at most 10% of control; inactive means the rest
- Conditions: second compound 0.1 µM; first compound 1 µM
Hi! Could you answer with just one of these? label 1 = active, label 0 = inactive

[[record]]
compound = "COc1ccc([C@@H](O)c2cc(-c3ncnc4cc(N5CCOCC5)ccc34)c(F)cc2Cl)nn1 + Cc1cnc(CNC(=O)c2c(=O)c3ccc(N4CCCN(C)CC4)nc3n3c2sc2ccccc23)cn1"
group = "label 0"


Kindly review the next compound as well.
Field: outcome | Entry: CC(=O)O[C@H]1C(=O)[C@@]2(C)[C@H]([C@H](OC(=O)c3ccccc3)[C@]3(O)C[C@H](OC(=O)[C@H](O)[C@@H](NC(=O)c4ccccc4)c4ccccc4)C(C)=C1C3(C)C)[C@]1(OC(C)=O)CO[C@@H]1C[C@@H]2O + Cc1[nH]c2ccc(F)cc2c1-c1nc2c3cccnc3c3ncccc3c2[nH]1
label 1

* * *

- Tested on: 596521-263-R-J1-PDC complex spheroids, viability % of control
- Run description: Anticancer human tumor 596521-263-R-J1-PDC cell line growth inhibition [GQUAD]; active = viability on the fitted dose curve at most 10% of control; inactive = the rest;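 also: spheroids exposed to drugs for 7 days before viability reading; 100% = DMSO vehicle control viability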
- Conditions: second compound 0.316 µM; first compound 3.16 µM
Hi! Could you answer with just one of these? active, inactive

[[record]]
molecule = "COc1ncnc(C2CC2)c1-c1ncc2cnn(Cc3ccc(-c4nc(C(F)(F)F)cn4C(C)C)cc3)c2n1 + Cc1cnc(CNC(=O)c2c(=O)c3ccc(N4CCCN(C)CC4)nc3n3c2sc2ccccc23)cn1"
group = "inactive"

[[record]]
molecule = "O=C(NO)c1cnc(N2CCN(S(=O)(=O)c3ccc4ccccc4c3)CC2)nc1 + CN(C)c1ccc(Nc2c3ccc(NC(=O)CCN4CCCC4)cc3nc3cc(NC(=O)CCN4CCCC4)ccc23)cc1"
group = "active"

[[record]]
molecule = "CC1COCCN1c1cc(C2(O)CC3CCC(C2)O3)c2cnn(-c3ccn[nH]3)c2n1 (stereo not given) + Cc1cnc(CNC(=O)c2c(=O)c3ccc(N4CCCN(C)CC4)nc3n3c2sc2ccccc23)cn1"
group = "inactive"

[[record]]
molecule = "COc1ccc([C@@H](O)c2cc(-c3ncnc4cc(N5CCOCC5)ccc34)c(F)cc2Cl)nn1 + CN(C)c1ccc(Nc2c3ccc(NC(=O)CCN4CCCC4)cc3nc3cc(NC(=O)CCN4CCCC4)ccc23)cc1"
group = "inactive"


Kindly review the next molecule as well.
Field: outcome | Entry: CC1COCCN1c1cc(C2(S(C)(=N)=O)CC2)nc(-c2ccnc3[nH]ccc23)n1 (stereo not given) + CN(C)c1ccc(Nc2c3ccc(NC(=O)CCN4CCCC4)cc3nc3cc(NC(=O)CCN4CCCC4)ccc23)cc1
inactive

* * *

Each entry below carries its reported viability, T/C.
- Tested on: 596521-263-R-J1-PDC complex spheroids, viability % of control
- Run description: Anticancer human tumor 596521-263-R-J1-PDC cell line growth inhibition [GQUAD];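 also: spheroids exposed to drugs for 7 days before viability reading; 100% = DMSO vehicle control viability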
- Conditions: second compound 0.316 µM; first compound 3.16 µM; hits give low values

Use the examples below as a reference point.
[[record]]
compound = "Nc1ccn(C2OC(CO)C(O)C2(F)F)c(=O)n1 (stereo not drawn) + Cc1cnc(CNC(=O)c2c(=O)c3ccc(N4CCCN(C)CC4)nc3n3c2sc2ccccc23)cn1"
property_label = "viability, T/C"
readout_value = "41.6%"

[[record]]
compound = "CC1COCCN1c1cc(-c2ccnn2C)c2ccnc(-c3ccn[nH]3)c2n1 (stereo not drawn) + CN(C)c1ccc(Nc2c3ccc(NC(=O)CCN4CCCC4)cc3nc3cc(NC(=O)CCN4CCCC4)ccc23)cc1"
property_label = "viability, T/C"
readout_value = "30.4%"


Attention now shifts to the item below.
Entry Cc1cccc(N(C)C(=O)C2C(O)CCN2c2nc(C)cc(C(F)(F)F)c2C#N)c1 (stereo not drawn) + CN(C)c1ccc(Nc2c3ccc(NC(=O)CCN4CCCC4)cc3nc3cc(NC(=O)CCN4CCCC4)ccc23)cc1 — recorded viability, T/C = 113%

* * *

Each entry below carries its reported viability, T/C.
- System: 596521-263-R-J1-PDC complex spheroids, viability % of control
- Run description: Anticancer human tumor 596521-263-R-J1-PDC cell line growth inhibition [GQUAD];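 also: spheroids exposed to drugs for 7 days before viability reading; 100% = DMSO vehicle control viability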
- Conditions: second compound 0.316 µM; first compound 0.316 µM; hits give low values
# number only, unit % dropped from output

Entry COc1cc(C2c3cc4c(cc3C(OC3OC5COC(C)OC5C(O)C3O)C3COC(=O)C23)OCO4)cc(OC)c1O (stereo not given) + CN(C)c1ccc(Nc2c3ccc(NC(=O)CCN4CCCC4)cc3nc3cc(NC(=O)CCN4CCCC4)ccc23)cc1 — recorded viability, T/C = 82.7

Entry C=CC(=O)N1CCN(c2nc(=O)n(-c3c(C)ccnc3C(C)C)c3nc(-c4c(O)cccc4F)c(F)cc23)C(C)C1 (stereo not given) + Cc1cnc(CNC(=O)c2c(=O)c3ccc(N4CCCN(C)CC4)nc3n3c2sc2ccccc23)cn1 — recorded viability, T/C = 90.5

Entry C=CC(=O)N1CCN(c2nc(=O)n(-c3c(C)ccnc3C(C)C)c3nc(-c4c(O)cccc4F)c(F)cc23)C(C)C1 (stereo not given) + CN(C)c1ccc(Nc2c3ccc(NC(=O)CCN4CCCC4)cc3nc3cc(NC(=O)CCN4CCCC4)ccc23)cc1 — recorded viability, T/C = 98.8

Entry C=CCn1c(=O)c2cnc(Nc3ccc(N4CCN(C)CC4)cc3)nc2n1-c1cccc(C(C)(C)O)n1 + Cc1cnc(CNC(=O)c2c(=O)c3ccc(N4CCCN(C)CC4)nc3n3c2sc2ccccc23)cn1 — recorded viability, T/C = 50.7

Entry O=C(c1cc(Cc2n[nH]c(=O)c3ccccc23)ccc1F)N1CCN(C(=O)C2CC2)CC1 + CN(C)c1ccc(Nc2c3ccc(NC(=O)CCN4CCCC4)cc3nc3cc(NC(=O)CCN4CCCC4)ccc23)cc1 — recorded viability, T/C = 101

* * *

- System: 596521-263-R-J1-PDC complex spheroids, viability % of control
- Run description: Anticancer human tumor 596521-263-R-J1-PDC cell line growth inhibition [GQUAD];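 also: spheroids exposed to drugs for 7 days before viability reading; 100% = DMSO vehicle control viability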
- Conditions: second compound 0.1 µM; first compound 0.1 µM; hits give low values
Exam item: assign Satisfied to entries whose viability, T/C is below 70% and Not satisfied to entries at or above 70%. Note that a value of exactly 70% receives Not satisfied.

Does the reported viability, T/C of COc1cccc2c1C(=O)c1c(O)c3c(c(O)c1C2=O)CC(O)(C(=O)CO)CC3OC1CC(N)C(O)C(C)O1 (stereo not given) + CN(C)c1ccc(Nc2c3ccc(NC(=O)CCN4CCCC4)cc3nc3cc(NC(=O)CCN4CCCC4)ccc23)cc1 stay below 70%?
Not satisfied

Does the reported viability, T/C of CC(=O)O[C@H]1C(=O)[C@@]2(C)[C@H]([C@H](OC(=O)c3ccccc3)[C@]3(O)C[C@H](OC(=O)[C@H](O)[C@@H](NC(=O)c4ccccc4)c4ccccc4)C(C)=C1C3(C)C)[C@]1(OC(C)=O)CO[C@@H]1C[C@@H]2O + Cc1[nH]c2ccc(F)cc2c1-c1nc2c3cccnc3c3ncccc3c2[nH]1 stay below 70%?
Satisfied

Does the reported viability, T/C of CC1COCCN1c1cc(-c2ccnn2C)c2ccnc(-c3ccn[nH]3)c2n1 (stereo not given) + Cc1cnc(CNC(=O)c2c(=O)c3ccc(N4CCCN(C)CC4)nc3n3c2sc2ccccc23)cn1 stay below 70%?
Satisfied

Does the reported viability, T/C of O=C(c1cc(Cc2n[nH]c(=O)c3ccccc23)ccc1F)N1CCN(C(=O)C2CC2)CC1 + Cc1[nH]c2ccc(F)cc2c1-c1nc2c3cccnc3c3ncccc3c2[nH]1 stay below 70%?
Not satisfied

Does the reported viability, T/C of CCCS(=O)(=O)Nc1ccc(F)c(C(=O)c2c[nH]c3ncc(-c4ccc(Cl)cc4)cc23)c1F + Cc1[nH]c2ccc(F)cc2c1-c1nc2c3cccnc3c3ncccc3c2[nH]1 stay below 70%?
Not satisfied
